# Test system: Plasmodium falciparum
# TEST METHOD NOTES: Antimalarial activity against Plasmodium falciparum 3D7 assessed as reduction in parasite viability by parasite lactate dehydrogenase release based colorimetric assay
# Format: functional, organism-based
REPORTED METRIC: pIC50
Conceptually, pIC50 converts a concentration in mol/L into minus its log10.

Ask: Give Plasmodium falciparum pIC50 for `O=C1C(Cl)=C(Nc2nc(-c3ccc([N+](=O)[O-])cc3)cs2)C(=O)c2ccccc21`
Reply: 4.69

Ask: Provide the documented pIC50 with Plasmodium falciparum as the system for `O=C1C(Cl)=C(Nc2nc(-c3ccc(F)cc3)cs2)C(=O)c2ccccc21`
Reply: 4.35

Ask: Return pIC50 measured with Plasmodium falciparum given this compound: `O=C1C(Cl)=C(Nc2nc(-c3ccc(Br)cc3)cs2)C(=O)c2ccccc21`
Reply: 4.30

----------
# System: Plasmodium falciparum
# TEST METHOD NOTES: Antimalarial activity against Plasmodium falciparum 3D7 assessed as reduction in parasite viability at 20 uM by parasite lactate dehydrogenase released based colorimetric assay relative to control
# Type: functional
Assign inhibition at 20 µM to each entry below.
The reply should contain only the number, in %.

Ask: Returns the measured inhibition at 20 µM for the input compound. Input: `CCOC(=O)c1csc(NC2=C(Cl)C(=O)c3ccccc3C2=O)n1`
Reply: 40

Ask: Looking for the measured inhibition at 20 µM of `O=C1C(Cl)=C(Nc2nc(-c3ccccc3)cs2)C(=O)c2ccccc21` , can you help?
Reply: 10

Ask: Give the measured inhibition at 20 µM of `O=C1C(Cl)=C(Nc2nc(-c3ccc(Cl)cc3)cs2)C(=O)c2ccccc21` .
Reply: 30

----------
# Test system: HeLa
# TEST METHOD NOTES: Cytotoxicity against human HeLa cells assessed as cell viability at 20 uM after 24 hrs by resazurin based fluorescence assay relative to control
# Format: functional
# STUDY CONDITIONS: read-out: Activity
Would you mind telling me the reported viability at 20 µM of each entry?
Your answer should be a plain number; it is taken to be in %.

Ask: Lab note: need viability at 20 µM for `O=C1C(Cl)=C(Nc2nc(-c3ccc(Br)cc3)cs2)C(=O)c2ccccc21` on HeLa, anyone have it?
Reply: 55

Ask: Param readout= viability at 20 µM; system= HeLa; entry= `O=C1C(Cl)=C(Nc2nc(-c3ccc(Cl)cc3)cs2)C(=O)c2ccccc21` ; returns value.
Reply: 80

Ask: Return viability at 20 µM measured with HeLa given this compound: CCN(CC)CCCC(C)Nc1ccnc2cc(Cl)ccc12 (stereo not drawn)
Reply: 3.6

Ask: Missing value: viability at 20 µM, HeLa, entry `O=C1C(Cl)=C(Nc2nc(-c3ccc([N+](=O)[O-])cc3)cs2)C(=O)c2ccccc21` . Fill in?
Reply: 80

Ask: Please state recorded viability at 20 µM (tested on HeLa) of `O=C1C(Cl)=C(Nc2nc(-c3ccc(F)cc3)cs2)C(=O)c2ccccc21`
Reply: 75

Ask: Hi! What's the reported viability at 20 µM for `O=C1C(Cl)=C(Nc2nc(-c3ccccc3)cs2)C(=O)c2ccccc21` on HeLa?
Reply: 80

Ask: viability at 20 µM of `O=C(O)c1csc(NC2=C(Cl)C(=O)c3ccccc3C2=O)n1` on HeLa?
Reply: 75

Ask: Give the reported viability at 20 µM for `CCOC(=O)c1csc(NC2=C(Cl)C(=O)c3ccccc3C2=O)n1` (system: HeLa).
Reply: 82

----------
Field: inhibition at 20 µM. Provide a value for each of the compounds that follow.
# Tested on: Plasmodium falciparum
# TEST METHOD NOTES: Antimalarial activity against Plasmodium falciparum 3D7 assessed as reduction in parasite viability at 20 uM by parasite lactate dehydrogenase released based colorimetric assay relative to control
# Format: functional

Ask: Please look up its inhibition at 20 µM: `O=C1C(Cl)=C(Nc2nc(-c3ccc([N+](=O)[O-])cc3)cs2)C(=O)c2ccccc21`
Reply: 80 to 90%

Ask: Give the measured inhibition at 20 µM of `O=C1C(Cl)=C(Nc2nc(-c3ccc(F)cc3)cs2)C(=O)c2ccccc21` .
Reply: 80 to 90%

Ask: I have this compound here, `O=C1C(Cl)=C(Nc2nc(-c3ccc(Br)cc3)cs2)C(=O)c2ccccc21` , and I need its recorded inhibition at 20 µM.
Reply: 80 to 90%

All values here come from ChEMBL document CHEMBL4340555.
